test.target: T1, human TREM2 (human, UniProt Q9NZC2 19-174, limits assumed)
T1 construct: also called triggering receptor expressed on myeloid cells 2
T1 sequence: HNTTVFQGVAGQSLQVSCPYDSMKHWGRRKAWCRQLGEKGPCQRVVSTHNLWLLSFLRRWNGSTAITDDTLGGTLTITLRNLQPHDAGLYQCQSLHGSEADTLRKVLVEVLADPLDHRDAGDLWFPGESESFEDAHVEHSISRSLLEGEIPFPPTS
measurement.protocol: 1st screen (110 nM or 10 nM)
Binding Signal (fold over 6E7 Parental antibody) for assorted binders
Write the value in fold as a bare number.

Worked set:
[[record]]
binder = "V71 (antibody, V domains shown) VH: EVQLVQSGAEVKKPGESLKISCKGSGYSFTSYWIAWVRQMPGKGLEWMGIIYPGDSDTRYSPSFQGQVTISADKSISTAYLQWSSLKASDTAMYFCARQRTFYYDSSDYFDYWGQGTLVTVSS VL: DIQMTQSPSSVSASVGDRVTITCRASQGISSWLAWYQQKPGKAPKLLIYAASSLQNGVPSRFSGSGSGTDFTLTISSLQPEDFATYFCQQADSEPRTFGQGTKLEIK"
recorded_measurement = 0.37

[[record]]
binder = "V37 (antibody, V domains shown) VH: EVQLVQSGAEVKKPGESLKISCKGSGYSHTSYWIAWVRQMPGKGLEWMGIIYPGDSDTRYSPSFAGQVTISADKSISTAYLQWSSLKASDTAMYFCARSRTFYYDSSDYFDYWGQGTLVTVSS VL: DIQMTQSPSSVSASVGDRVTITCRASQGISSWLAWYQQKPGKAPKLLIYAASSLQWGVPSRFSGSGSGTDFTLTISSLQPEDFATYFCQQADSYPRTFGQGTKLEIK"
recorded_measurement = 3.46


Now take the following binder into account.
Request: Reported Binding Signal (fold over 6E7 Parental antibody), binder V41 (antibody, V domains shown) VH: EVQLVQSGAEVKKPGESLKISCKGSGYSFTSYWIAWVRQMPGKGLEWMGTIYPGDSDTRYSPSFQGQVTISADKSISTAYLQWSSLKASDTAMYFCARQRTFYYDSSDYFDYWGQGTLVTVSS VL: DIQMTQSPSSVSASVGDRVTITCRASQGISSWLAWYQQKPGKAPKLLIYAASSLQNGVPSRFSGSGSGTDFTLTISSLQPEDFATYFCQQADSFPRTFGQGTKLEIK : ____
Response: 1.74
